# TESTED_TARGET: T1, h-FXIIa (human), P00748
# T1 chain: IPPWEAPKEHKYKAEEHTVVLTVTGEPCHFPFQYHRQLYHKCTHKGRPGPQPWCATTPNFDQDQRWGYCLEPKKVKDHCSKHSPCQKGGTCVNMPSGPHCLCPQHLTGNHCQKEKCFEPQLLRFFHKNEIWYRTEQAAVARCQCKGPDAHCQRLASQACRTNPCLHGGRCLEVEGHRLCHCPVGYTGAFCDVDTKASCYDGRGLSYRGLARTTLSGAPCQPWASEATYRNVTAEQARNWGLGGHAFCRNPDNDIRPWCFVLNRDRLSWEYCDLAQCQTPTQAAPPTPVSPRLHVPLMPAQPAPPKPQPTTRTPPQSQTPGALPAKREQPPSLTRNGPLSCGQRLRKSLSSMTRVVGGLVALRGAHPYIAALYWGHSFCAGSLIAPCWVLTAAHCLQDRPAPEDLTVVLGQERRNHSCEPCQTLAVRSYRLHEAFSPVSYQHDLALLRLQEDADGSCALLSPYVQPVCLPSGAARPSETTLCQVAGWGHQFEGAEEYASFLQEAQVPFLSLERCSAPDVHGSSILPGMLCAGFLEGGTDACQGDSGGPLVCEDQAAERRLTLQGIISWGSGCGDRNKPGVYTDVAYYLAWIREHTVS
# ASSAY_PROTOCOL: S2302 hydrolysis by h-FXIIa (5.01 nM); inhibitor at RT during 72 hrs
pKi: −log10 of the molar value.

>  <BINDER>
RVCPRILMKCKKDSDCLAECVCLEHGYCG (modifications not checked) [TICA 1]

>  <pKi>
7.59

$$$$
